Measured values drawn from patent US10662195B2 for this set.

# ASSAY_TARGET: FLT3 (Homo sapiens)
# Construct: purchased PV3182
# Sequence (P36888 27-993): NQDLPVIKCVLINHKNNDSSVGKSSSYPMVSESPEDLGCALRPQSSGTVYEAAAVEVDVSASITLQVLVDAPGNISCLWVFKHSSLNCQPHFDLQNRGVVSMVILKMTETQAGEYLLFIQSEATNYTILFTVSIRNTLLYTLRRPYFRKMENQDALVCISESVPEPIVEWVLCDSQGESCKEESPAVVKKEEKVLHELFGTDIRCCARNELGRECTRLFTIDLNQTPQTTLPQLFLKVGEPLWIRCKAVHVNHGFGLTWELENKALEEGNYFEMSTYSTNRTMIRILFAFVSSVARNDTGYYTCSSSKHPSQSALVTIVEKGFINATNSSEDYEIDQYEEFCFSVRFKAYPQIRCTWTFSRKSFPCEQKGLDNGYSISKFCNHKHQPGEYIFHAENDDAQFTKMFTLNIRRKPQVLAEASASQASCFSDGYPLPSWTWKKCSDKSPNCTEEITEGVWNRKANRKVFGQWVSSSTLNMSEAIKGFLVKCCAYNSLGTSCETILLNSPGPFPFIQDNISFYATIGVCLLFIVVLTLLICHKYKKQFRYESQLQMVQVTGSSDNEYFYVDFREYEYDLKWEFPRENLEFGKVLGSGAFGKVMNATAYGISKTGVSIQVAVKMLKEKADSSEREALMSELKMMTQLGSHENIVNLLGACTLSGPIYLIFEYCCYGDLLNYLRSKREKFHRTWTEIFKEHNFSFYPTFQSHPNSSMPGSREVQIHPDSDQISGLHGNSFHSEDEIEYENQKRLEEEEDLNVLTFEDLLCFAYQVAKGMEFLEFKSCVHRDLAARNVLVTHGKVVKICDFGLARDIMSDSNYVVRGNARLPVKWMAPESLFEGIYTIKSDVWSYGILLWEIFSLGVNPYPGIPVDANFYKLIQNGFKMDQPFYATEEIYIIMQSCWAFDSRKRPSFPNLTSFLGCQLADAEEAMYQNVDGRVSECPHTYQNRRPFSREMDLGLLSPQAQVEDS
# EXPERIMENT_NOTES: FLT-3 Omnia continuous-read kinase assay
# Assay type: biochemical
# MEASUREMENT_CONTEXT: 30 min pre-incubation, [ATP]=500 μM; read-out: IC50_APP FLT3
REPORTED_METRIC: IC50 (nM)
Express the result in nM but write the number alone.

{"columns": ["COMPOUND", "IC50 (nM)"],
 "data": [
  ["C=CC(=O)Nc1ccc(Sc2nc(Nc3cc(C)n[nH]3)cc(N3CCN(C)CC3)n2)cc1 [II-53]", 3.76]
]}

Lookup: Endpoint output: IC50 of CNC(=O)c1cc(Oc2ccc(NC(=O)Nc3ccc(NC(=O)/C=C/CN(C)C)c(C(F)(F)F)c3)cc2)ccn1 [XVIII-12] . Value?
Found: 1.07

Lookup: Reported IC50 for CNC(=O)c1cc(Oc2ccc(NC(=O)Nc3ccc(NC(=O)C(C)Cl)c(C(F)(F)F)c3)cc2)ccn1 (stereo not shown) [XVIII-14] : what is it?
Found: 107

Lookup: Could you tell me which IC50 is on file for C=CC(=O)Nc1ccc(NC(=O)Nc2ccc(Oc3ccnc(C(=O)NC)c3)cc2)cc1C(F)(F)F [XVIII-11] ?
Found: 1.99

Lookup: Value lookup for IC50; key = C=CC(=O)N1CCC(Sc2nc(Nc3ncc(C#N)s3)cc(N3CCN(C)CC3)n2)CC1 [II-2]
Found: 0.508

Lookup: Give its IC50 value. Item: C=CC(=O)Nc1ccc(Sc2nc(Nc3ncc(C#N)s3)cc(N3CCN(C)CC3)n2)cc1 [II-1]
Found: 3.15

Lookup: Requested field: IC50. Item: CNC(=O)c1cc(Oc2ccc(NC(=O)Nc3ccc(NC(=O)CCl)c(C(F)(F)F)c3)cc2)ccn1 [XVIII-13]
Found: 0.508

---

# ASSAY_TARGET: CKIT (Homo sapiens, UniProt P10721)
# Sequence (P10721 26-976): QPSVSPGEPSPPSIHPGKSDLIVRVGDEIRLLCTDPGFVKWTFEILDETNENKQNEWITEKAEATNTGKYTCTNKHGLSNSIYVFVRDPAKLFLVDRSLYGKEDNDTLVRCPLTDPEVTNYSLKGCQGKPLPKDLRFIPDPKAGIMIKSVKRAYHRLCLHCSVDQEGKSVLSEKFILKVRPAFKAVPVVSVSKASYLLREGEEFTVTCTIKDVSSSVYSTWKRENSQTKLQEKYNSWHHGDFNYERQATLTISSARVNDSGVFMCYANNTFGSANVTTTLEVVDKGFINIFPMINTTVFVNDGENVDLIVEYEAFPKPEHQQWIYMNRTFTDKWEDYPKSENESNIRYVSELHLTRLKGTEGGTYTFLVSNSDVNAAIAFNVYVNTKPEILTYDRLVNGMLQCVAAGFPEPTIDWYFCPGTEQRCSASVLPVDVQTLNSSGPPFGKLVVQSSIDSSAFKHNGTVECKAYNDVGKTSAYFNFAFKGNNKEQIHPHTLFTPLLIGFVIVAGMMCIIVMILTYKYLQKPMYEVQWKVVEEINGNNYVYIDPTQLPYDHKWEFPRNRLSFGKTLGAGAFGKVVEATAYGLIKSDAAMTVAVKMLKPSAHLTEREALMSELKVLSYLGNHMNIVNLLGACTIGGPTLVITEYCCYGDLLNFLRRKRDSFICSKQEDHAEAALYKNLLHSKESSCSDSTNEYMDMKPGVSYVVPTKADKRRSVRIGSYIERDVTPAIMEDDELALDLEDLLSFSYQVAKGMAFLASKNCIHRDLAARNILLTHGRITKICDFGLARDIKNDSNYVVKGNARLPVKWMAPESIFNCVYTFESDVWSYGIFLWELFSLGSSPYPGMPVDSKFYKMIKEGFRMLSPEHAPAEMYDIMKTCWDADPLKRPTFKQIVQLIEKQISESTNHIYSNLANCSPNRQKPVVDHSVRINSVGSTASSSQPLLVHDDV
# EXPERIMENT_NOTES: c-Kit Omnia kinase assay
# Type: biochemical
# MEASUREMENT_CONTEXT: reversible reference compounds; read-out: IC50 CKIT
REPORTED_METRIC: pIC50
When answering, recall that pIC50 equals minus log10 of the concentration in mol/L, and write that number alone.

Lookup: Test system CKIT (Homo sapiens, UniProt P10721); read-out pIC50; what value for CCC(=O)Nc1ccc(NC(=O)Nc2ccc(Oc3ccnc(C(=O)NC)c3)cc2)cc1C(F)(F)F [Reversible Reference Compound 3, reference compound] ?
Found: 7.79

---

# ASSAY_TARGET: UniProt:P35968
# Sequence (P35968 20-1356): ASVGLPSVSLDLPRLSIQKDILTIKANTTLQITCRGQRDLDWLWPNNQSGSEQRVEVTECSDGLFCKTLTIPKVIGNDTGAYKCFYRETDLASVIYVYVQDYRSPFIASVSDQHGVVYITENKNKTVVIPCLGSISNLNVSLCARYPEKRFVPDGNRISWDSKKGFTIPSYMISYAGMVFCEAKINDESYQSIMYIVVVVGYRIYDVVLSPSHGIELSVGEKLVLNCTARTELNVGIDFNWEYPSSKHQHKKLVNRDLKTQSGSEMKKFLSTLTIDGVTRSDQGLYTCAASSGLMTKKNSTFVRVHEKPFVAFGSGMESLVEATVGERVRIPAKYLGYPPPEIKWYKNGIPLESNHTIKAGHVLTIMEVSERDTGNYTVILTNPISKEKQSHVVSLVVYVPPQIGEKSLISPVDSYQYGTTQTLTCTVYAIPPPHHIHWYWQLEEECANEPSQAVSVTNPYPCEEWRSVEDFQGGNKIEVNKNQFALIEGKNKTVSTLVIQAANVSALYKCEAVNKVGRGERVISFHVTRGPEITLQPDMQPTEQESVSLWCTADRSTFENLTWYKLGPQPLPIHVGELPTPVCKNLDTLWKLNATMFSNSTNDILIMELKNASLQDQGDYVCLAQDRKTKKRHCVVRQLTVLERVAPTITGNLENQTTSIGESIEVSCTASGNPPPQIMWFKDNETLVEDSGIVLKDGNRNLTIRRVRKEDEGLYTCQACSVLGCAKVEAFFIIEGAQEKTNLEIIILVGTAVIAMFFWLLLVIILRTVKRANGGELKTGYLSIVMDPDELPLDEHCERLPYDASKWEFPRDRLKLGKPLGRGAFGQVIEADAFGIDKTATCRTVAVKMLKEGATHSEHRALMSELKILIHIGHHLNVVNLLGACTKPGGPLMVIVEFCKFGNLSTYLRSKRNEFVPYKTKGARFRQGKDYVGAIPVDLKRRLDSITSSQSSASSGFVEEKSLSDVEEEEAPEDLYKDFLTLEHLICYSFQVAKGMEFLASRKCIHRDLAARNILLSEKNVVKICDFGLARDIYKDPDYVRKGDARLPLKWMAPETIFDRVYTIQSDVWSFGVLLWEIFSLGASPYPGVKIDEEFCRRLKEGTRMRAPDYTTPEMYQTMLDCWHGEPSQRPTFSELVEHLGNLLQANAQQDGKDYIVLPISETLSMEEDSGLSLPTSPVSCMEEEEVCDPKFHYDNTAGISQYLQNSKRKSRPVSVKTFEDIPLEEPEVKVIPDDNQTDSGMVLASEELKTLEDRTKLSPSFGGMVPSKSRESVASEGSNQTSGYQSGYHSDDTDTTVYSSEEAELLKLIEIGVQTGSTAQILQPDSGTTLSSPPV
# EXPERIMENT_NOTES: KDR Omnia continuous-read kinase assay
# Assay type: biochemical
# Parameters: purchased Invitrogen or BPS Bioscience PV3660 or 40301
# MEASUREMENT_CONTEXT: reversible reference compounds; read-out: IC50 KDR
# Description: A. KDR and FLT-3 Omnia Assay for Potency Assessment: The protocol below describes a continuous-read kinase assay to measure inherent potency of Avila Therapeutics' compounds against active KDR and FLT-3 enzymes. The assay was performed substantially as described by the vendor (Invitrogen, Carlsbad, Calif.; http://www.invitrogen.com/content.cfm?pageid=11338.) […]
Listed molecules paired with reported IC50
Quick note: give the figure in nM, leave out the unit.

Known results for molecules:
{"columns": ["MOLECULE", "IC50 (nM)"],
 "data": [
  ["CCC(=O)N1CCC(Sc2nc(Nc3ncc(C#N)s3)cc(N3CCN(C)CC3)n2)CC1 [Reversible Reference Compound 2, reference compound]", 95.7],
  ["CCC(=O)Nc1ccc(NC(=O)Nc2ccc(Oc3ccnc(C(=O)NC)c3)cc2)cc1C(F)(F)F [Reversible Reference Compound 3, reference compound]", 39.4]
]}

Lookup: Any idea what its IC50 is? The molecule is CCC(=O)Nc1ccc(Sc2nc(Nc3ncc(C#N)s3)cc(N3CCN(C)CC3)n2)cc1 [Reversible Reference Compound 1, reference compound]
Found: 254
